Catalogue of compounds with associated Activity
- Tested on: Hepatitis delta virus
- assay-name: Antiviral activity against HDV infected in human HepG2-NTCP cells assessed as reduction in intranuclear accumulation of HDV delta antigen at 5 uM incubated for 24 hrs followed by replacement with fresh medium and measured at day 5 post infection by DAPI staining based confocal microscopic analysis (reference value: 12.1 %)
- Type: functional
- Parameters: scale not given: the % may be the effect or the level left
# output: bare number, implied unit %

| structure-as-smiles | Activity / % |
| --- | --- |
| C[C@@H]1CCC(=O)NCCNC(=O)CC[C@@H](C)[C@H]2CC[C@H]3[C@@H]4[C@@H](O)C[C@@H]5C[C@@H](CC[C@]5(C)[C@H]4CC[C@]23C)NC(=O)CCCC(=O)N[C@@H]2CC[C@@]3(C)[C@@H](C2)C[C@H](O)[C@@H]2[C@@H]3CC[C@]3(C)[C@@H]1CC[C@@H]23 | 2.9 |

Next:
Hepatitis delta virus assay, compound C[C@H](CCC(=O)NCCS(=O)(=O)O)[C@H]1CC[C@H]2[C@@H]3[C@@H](O)C[C@@H]4C[C@H](OCc5cn([C@@H]6CC[C@@]7(C)[C@@H](C6)C[C@H](O)[C@@H]6[C@@H]7CC[C@]7(C)[C@@H]([C@H](C)CCC(=O)NCCS(=O)(=O)O)CC[C@@H]67)nn5)CC[C@]4(C)[C@H]3CC[C@]12C , recorded Activity = 1.8

All figures here come from ChEMBL document CHEMBL4834431.
